Test system: Mus musculus
measurementDescription: Serum concentration of the liberated Norfloxacin after oral administration (100 mg/kg) in mice after 2.0 hr
Assay type: functional, organism-based
valueType: Serum concentration
Please don't drop the unit; write it after the number.

// known answers, use as guide
# molecule, testedOn, Serum concentration
rows = [
    ("CCn1cc(C(=O)O)c(=O)c2cc(F)c(N3CCNCC3)cc21", "Mus musculus", "1.12 µg/mL"),
    ("CCn1cc(C(=O)O)c(=O)c2cc(F)c(N3CCN(C(C)C(C)=O)CC3)cc21 (stereo not given)", "Mus musculus", "1.67 µg/mL"),
    ("CCOC(=O)CN1CCN(c2cc3c(cc2F)c(=O)c(C(=O)O)cn3CC)CC1", "Mus musculus", "0.38 µg/mL"),
    ("CCn1cc(C(=O)O)c(=O)c2cc(F)c(N3CCN(CC#N)CC3)cc21", "Mus musculus", "1.15 µg/mL"),
]

Could you now consider this next molecule?
Send back Mus musculus Serum concentration of `CCn1cc(C(=O)O)c(=O)c2cc(F)c(N3CCN(CC(C)=O)CC3)cc21` only. 3.96 µg/mL

* * *

Measured log10 of Serum concentration by item
System: Mus musculus
measurementDescription: Serum concentration of the liberated Norfloxacin after oral administration 100 mg/kg in mice after the 2.0 h
Type: functional, organism-based
Design: dose 100 mg/kg
Values are log10 of Serum concentration in µg/mL.

Please look at this compound and report its log10 of Serum concentration: `CCn1cc(C(=O)O)c(=O)c2cc(F)c(N3CCN(CC(C)=O)CC3)cc21` 0.60

Please look at this compound and report its log10 of Serum concentration: `CCn1cc(C(=O)O)c(=O)c2cc(F)c(N3CCNCC3)cc21` 0.05

Please look at this compound and report its log10 of Serum concentration: CCn1cc(C(=O)O)c(=O)c2cc(F)c(N3CCN(C(C)C(C)=O)CC3)cc21 (stereo not given) 0.22

Please look at this compound and report its log10 of Serum concentration: `CCn1cc(C(=O)O)c(=O)c2cc(F)c(N3CCN(CC#N)CC3)cc21` 0.06

Please look at this compound and report its log10 of Serum concentration: `CCOC(=O)CN1CCN(c2cc3c(cc2F)c(=O)c(C(=O)O)cn3CC)CC1` -0.42

* * *

measurementDescription: Compound was evaluated for Area under curve in mice
Format: ADME, organism-based
Parameters: concentration or dose not given beside the values
runConditions: mouse, in vivo
# label = yes if AUC < 4000 ng·h/mL else no

In plain terms, does CCn1cc(C(=O)O)c(=O)c2cc(F)c(N3CCNCC3)cc21 [NORFLOXACIN] come in under 4000 ng·h/mL for AUC? no

In plain terms, does CCn1cc(C(=O)O)c(=O)c2cc(F)c(N3CCN(C(C)C(C)=O)CC3)cc21 (stereo not given) come in under 4000 ng·h/mL for AUC? no

In plain terms, does `CCn1cc(C(=O)O)c(=O)c2cc(F)c(N3CCN(CC(C)=O)CC3)cc21` come in under 4000 ng·h/mL for AUC? no

In plain terms, does `CCn1cc(C(=O)O)c(=O)c2cc(F)c(N3CCN(CC#N)CC3)cc21` come in under 4000 ng·h/mL for AUC? yes

* * *

System: Mus musculus
measurementDescription: Serum concentration of the liberated Norfloxacin after oral administration (100 mg/kg) in mice after 1.0 hr
Assay type: functional, organism-based
valueType: Serum concentration (µg/mL)
Field: numeric (µg/mL). Do not append units.

# compound, testedOn, quantityUnit, Serum concentration
records = [
    ("CCn1cc(C(=O)O)c(=O)c2cc(F)c(N3CCN(CC#N)CC3)cc21", "Mus musculus", "µg/mL", 0.75),
    ("CCn1cc(C(=O)O)c(=O)c2cc(F)c(N3CCN(C(C)C(C)=O)CC3)cc21 (stereo not given)", "Mus musculus", "µg/mL", 1.68),
    ("CCn1cc(C(=O)O)c(=O)c2cc(F)c(N3CCNCC3)cc21", "Mus musculus", "µg/mL", 2.02),
    ("CCn1cc(C(=O)O)c(=O)c2cc(F)c(N3CCN(CC(C)=O)CC3)cc21", "Mus musculus", "µg/mL", 5.74),
]

Please look at this compound and report its Serum concentration: `CCOC(=O)CN1CCN(c2cc3c(cc2F)c(=O)c(C(=O)O)cn3CC)CC1` 1.37

* * *

Species on record: Mus musculus
measurementDescription: Compound was evaluated for Area under curve in mice
Assay type: ADME, organism-based
Set-up: concentration or dose not given beside the values
runConditions: in vivo
valueType: AUC (µg·h/mL)
Field: numeric (µg·h/mL). Do not append units.

// known answers, use as guide
# compound, valueType, numericValue
measured = [
    ("CCn1cc(C(=O)O)c(=O)c2cc(F)c(N3CCN(C(C)C(C)=O)CC3)cc21 (stereo not given)", "AUC", 5.71),
    ("CCn1cc(C(=O)O)c(=O)c2cc(F)c(N3CCNCC3)cc21 [NORFLOXACIN]", "AUC", 6.49),
    ("CCOC(=O)CN1CCN(c2cc3c(cc2F)c(=O)c(C(=O)O)cn3CC)CC1", "AUC", 3.9),
    ("CCn1cc(C(=O)O)c(=O)c2cc(F)c(N3CCN(CC#N)CC3)cc21", "AUC", 3.06),
]

Could you now consider this next compound?
Please look at this compound and report its AUC: `CCn1cc(C(=O)O)c(=O)c2cc(F)c(N3CCN(CC(C)=O)CC3)cc21` 22.01

* * *

Tested on: Mus musculus
measurementDescription: Serum concentration of the liberated Norfloxacin after oral administration (100 mg/kg) in mice after 0.5 hr
Format: functional, organism-based
Measured Serum concentration by item
Please don't drop the unit; write it after the number.

Please look at this compound and report its Serum concentration: `CCn1cc(C(=O)O)c(=O)c2cc(F)c(N3CCN(CC(C)=O)CC3)cc21` 6.33 µg/mL

Please look at this compound and report its Serum concentration: `CCn1cc(C(=O)O)c(=O)c2cc(F)c(N3CCN(CC#N)CC3)cc21` 0.29 µg/mL

Please look at this compound and report its Serum concentration: `CCOC(=O)CN1CCN(c2cc3c(cc2F)c(=O)c(C(=O)O)cn3CC)CC1` 3.77 µg/mL

Please look at this compound and report its Serum concentration: CCn1cc(C(=O)O)c(=O)c2cc(F)c(N3CCNCC3)cc21 [NORFLOXACIN] 3.47 µg/mL

Please look at this compound and report its Serum concentration: CCn1cc(C(=O)O)c(=O)c2cc(F)c(N3CCN(C(C)C(C)=O)CC3)cc21 (stereo not given) 2.63 µg/mL
